ENDPOINT_LABEL: melting point (°C)

>>> df
                           molecular_string  units_label  result_number
0  O=C(CSc1nnc(-c2ccccc2F)n1-c1ccc(F)cc1)Nc1ccc(Br)cc1           °C          248.9
1  O=C(CSc1nnc(-c2ccccc2)n1-c1ccc(F)cc1)Nc1ccccc1           °C            206
2  O=C(CSc1nnc(-c2ccc(F)cc2)n1-c1ccc(F)cc1)Nc1ccc(Br)cc1           °C          219.3
3  O=C(CSc1nnc(-c2ccc(F)cc2)n1-c1ccc(F)cc1)Nc1ccc(F)cc1           °C          195.3
4  O=C(CSc1nnc(-c2ccccc2)n1-c1ccc(F)cc1)Nc1ccc(F)cc1           °C          220.1
